Experiment: NCI Yeast Anticancer Drug Screen. Data for the sgs1 mgt1 strain (AID 161);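 further: 0% = growth of cultures given vehicle only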
Conditions: S. cerevisiae sgs1 mgt1 strain, at 50.0 µM, active compounds read high
Description: Growth inhibition of yeast strains with defined genetic alterations is measured as a screen for potential anti-cancer activity. Selected strains with alterations in DNA damage repair or cell cycle control were exposed to compounds and growth inhibition was measured relative to vehicle treated controls. The strain used in this assay is sgs1 mgt1
The panel holds about 79,000 compounds, 15% with a hit somewhere; the sample as a whole holds those more often.
Label class 1 when growth inhibition is at or above -10%; otherwise label class 0.

Exercise: Please indicate if the recorded growth inhibition for "Cc1ccc(CCn2cnc3c(N(CCO)CCO)ncnc32)cc1" meets or exceeds -10%.
Key: class 1

Exercise: Do the same for "CN1CN=C(Sc2ccc(Cl)cc2[N+](=O)[O-])NC1" please
Key: class 0

Exercise: Do the same for O=C(O)C1CC=CCC1c1c2ccc(=O)cc-2oc2cc(O)ccc12 (stereo unspecified) please
Key: class 1

Exercise: Do the same for "CC(=O)NCCOC(=O)c1ccccc1" please
Key: class 1

Exercise: Do the same for "CC(C)(CO)N1CCN(C(=S)Nc2ccccc2)CC1" please
Key: class 1

Exercise: Do the same for COC(=O)C1(CC(=O)c2ccc(Cl)cc2)NC(=S)NC(=O)C1C#N (stereo unspecified) please
Key: class 1

Exercise: Do the same for "c1ccc(-c2[nH]nc3nc4c(nc23)CCCC4)cc1" please
Key: class 1

Exercise: Do the same for "CN(C)C(=Nc1ccccc1)N(C)N" please
Key: class 0

Exercise: Do the same for CC1(C)C(c2ccccc2)C12CCC1(C2=O)C(c2ccccc2)C1(C)C (stereo unspecified) please
Key: class 0

Exercise: Do the same for "Cn1nc(NC(=O)c2cc(N)nn2C)cc1C(=O)Nc1ccc2cc(S(=O)(=O)O)cc(S(=O)(=O)O)c2c1" please
Key: class 0

* * *

For each of the compounds below, state its growth inhibition.
Test: NCI Yeast Anticancer Drug Screen. Data for the rad50 strain (AID 155);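 further: 0% = growth of vehicle-only cultures of the same strain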
Conditions: S. cerevisiae rad50 strain growth inhibition; at 50.0 µM; active compounds read high
The panel holds about 79,000 compounds, 15% with a hit somewhere; the sample as a whole holds those more often.
The response must be a number in % with no trailing unit.

Exercise: For "O=C(Nc1ccc(N=Nc2ccccc2)cc1)c1ccc(Cl)cc1" , what is its reported growth inhibition?
Key: -11.1

Exercise: Do the same for "COc1ccc(/C=C/C(=O)c2cc(C(=O)O)c(OC)cc2OC)cc1OC" please
Key: 4

Exercise: Do the same for Cc1ccc(S(=O)(=O)OC2CC(C(C)(C)C)CCC2c2ccccc2)cc1 (configuration not stated) please
Key: -29.1

Exercise: Do the same for "C=CCNC(=S)/N=C/c1c(C(=O)OCC)[nH]n(-c2ccccc2)c1=O" please
Key: -27.8

Exercise: Do the same for "O=C1C=CC(=CC=C2C=CN(CCCCCCO)C=C2)C=C1" please
Key: 18.4

Exercise: Do the same for "Nc1ccc(Cl)cc1C(=O)Oc1ccccn1" please
Key: 6.9

Exercise: Do the same for OC1c2cc(Br)ccc2-c2c(F)cc(Br)cc21 (configuration not stated) please
Key: 4.9

Exercise: Do the same for O=C(Nc1cccc(Cl)c1)C(=O)C(C(=O)c1ccc2ccccc2c1)C1OC(=O)c2ccccc21 (configuration not stated) please
Key: 39

Exercise: Do the same for "CCCCCCCC(=O)NNCc1ccccc1" please
Key: -16.1

Exercise: Do the same for "CCN(CC)CCN1C(=O)c2c(c(-c3ccccc3)c3ccccc3c2-c2ccccc2)C1=O" please
Key: 21.6

Exercise: Do the same for O=c1nc(NCCc2c[nH]c3ccccc23)ccn1C1OC(CO)C(O)C1O (configuration not stated) please
Key: 19.1

Exercise: Do the same for c1ccc(C2NC(c3ccccc3)c3c(ccc4ccccc34)O2)cc1 (configuration not stated) please
Key: 20.1

Exercise: Do the same for Cc1nc(-c2ccccc2)ncc1C(O)CN1CCCCC1 (configuration not stated) please
Key: -21.7

Exercise: Do the same for CC(=O)/C=C1/NC(C(=O)c2ccccc2)=CNC1c1ccccc1 (configuration not stated) please
Key: 4.95

Exercise: Do the same for CC(=O)OC1CCC2(C)C(CCC3C2CCC2(C)C(C(C)=O)CCC32)C1 (configuration not stated) please
Key: 4.25

Exercise: Do the same for COCC(=O)C(C(C)=O)C(c1ccc(N(C)C)cc1)C(C(C)=O)C(=O)COC (configuration not stated) please
Key: -12.2

Exercise: Do the same for "CN(CCO)c1nc(N)cc(=O)[nH]1" please
Key: -17.7

Exercise: Do the same for COC(=O)C1CCC(/C(C#N)=C2/CCC(C(=O)OC)[N-]2)=N1.COC(=O)C1CCC(/C(C#N)=C2/CCC(C(=O)OC)[N-]2)=N1.[Cu+2] (configuration not stated) please
Key: -13.8

Exercise: Do the same for COC(=O)C1C2C=CC(C2)N1[C@@H](C)c1ccccc1 (some centres not stated) please
Key: 8.55

Exercise: Do the same for "Cc1nc2ccc(Br)cc2c(=O)n1-c1ccc(N=Cc2ccccc2Cl)cc1" please
Key: 49.8

Exercise: Do the same for "c1ccc([P+](c2ccccc2)(c2ccccc2)C2c3ccccc3CCc3ccccc32)cc1" please
Key: 99.6

Exercise: Do the same for "C/C(=N/O)c1ccc[nH]1" please
Key: -3.6

* * *

Assay: NCI Yeast Anticancer Drug Screen. Data for the rad50 strain (AID 155);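 further: 0% = growth of vehicle-only cultures of the same strain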
Conditions: S. cerevisiae rad50 strain growth inhibition; at 50.0 µM; active compounds read high
This is part of a sample that, as a whole, favours compounds with a hit. Of some 79,000 tested, about 15% had one in any assay.
parameter: growth inhibition (%)
The response must be a number in % with no trailing unit.

Exercise: For "O=c1ccc2ccc(O)c(O)c2o1" , what is its reported growth inhibition?
Key: -10.9

Exercise: Do the same for "CC1(C2(C)SCCS2)SCCS1" please
Key: 11.2

Exercise: Do the same for CCN1CCCC(Nc2nc(Nc3ccc(Cl)c(Cl)c3)nc3ccc(Cl)cc23)C1 (configuration not stated) please
Key: 99.2

Exercise: Do the same for COc1ccc(C(O)c2ncccc2C)cc1OC (configuration not stated) please
Key: -0.3

Exercise: Do the same for "c1ccc(N(c2ccccc2)C(c2ccccc2)(c2ccccc2)c2ccccc2)cc1" please
Key: 12.6

Exercise: Do the same for CC1(C)OC2CC3COC(=O)C3CC2O1 (configuration not stated) please
Key: 9.35

Exercise: Do the same for "S=C(S)NCNC(=S)S.[Zn+2]" please
Key: 1.65

* * *

Test: NCI Yeast Anticancer Drug Screen. Data for the cln2 rad14 strain (AID 165);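 further: 0% = growth equal to vehicle treated cultures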
Settings: S. cerevisiae cln2 rad14 strain, at 50.0 µM, active compounds read high
Compounds without any hit were thinned out: in the full panel of roughly 79,000, 15% have a hit.
Label 1.0 when growth inhibition is at or above -10%; otherwise label 0.0.

Exercise: Please indicate if the recorded growth inhibition for COc1cccc(C2OC(N)=C(O)C2=O)c1 (stereo unspecified) meets or exceeds -10%.
Key: 0.0

Exercise: Do the same for "Cc1ccc(N=Nc2c(C)nn(C(=S)S)c2C)cc1" please
Key: 1.0

Exercise: Do the same for Cc1ccc(S(=O)(=O)N2CC(CCl)N(S(=O)(=O)c3ccc(C)cc3)CC2CCl)cc1 (stereo unspecified) please
Key: 1.0

Exercise: Do the same for NC(=S)NNC(=O)C(Cc1ccccc1)NC(=O)OCc1ccccc1 (stereo unspecified) please
Key: 1.0

Exercise: Do the same for CC1c2ncnc(N)c2CN1C(=O)c1ccccc1 (stereo unspecified) please
Key: 0.0

Exercise: Do the same for "CCOC(=O)c1n[nH]c(C)c1C/C(=N/O)c1ccccc1" please
Key: 0.0

Exercise: Do the same for "CCOC(=O)C(C(=O)OCC)(C(=O)C(F)(F)C(F)(F)C(F)(F)C(F)(F)C(=O)C(C(=O)OCC)(C(=O)OCC)c1ccccc1)c1ccccc1" please
Key: 0.0

Exercise: Do the same for "COc1c2c(cc3c(CCc4ccccc4)cc(=O)oc13)CCC(C)(C)O2" please
Key: 1.0

Exercise: Do the same for "O=c1nc(-c2ccccc2)scc1-c1ccccc1" please
Key: 1.0

Exercise: Do the same for COCC(=O)C(C(C)=O)C(c1ccc(N(C)C)cc1)C(C(C)=O)C(=O)COC (stereo unspecified) please
Key: 0.0

Exercise: Do the same for COc1cc(OC)c(NC(=O)CC2SC(N)=NC2=O)cc1Cl (stereo unspecified) please
Key: 1.0
